Tested on: cathepsin B (Cts B)
Conditions: human, 27 °C, up to 100 min
Starred links: 1 amine or outer side, 2 acyl side, 3 side chain; linkers in the order of their positions; H or OH if unused. Non-standard residues stand in square brackets, D forms with d. Ala(7-MeO-coumarin-4-yl) = COc1ccc2c(C[C@H](N)C(=O)O)cc(=O)oc2c1; X1 = C[C@H](NC(=S)[C@H](CCCNC(=N)N)N[*:1])C(=O)[*:2]; X2 = C[C@H](NC(=S)[C@H](CCCCN)N[*:1])C(=O)[*:2]
property: cleaved bond

// below: answered substances
[[record]]
substance = "μHLFKAAAμ (H-[Ala(7-MeO-coumarin-4-yl)]HLFKAAA[Ala(7-MeO-coumarin-4-yl)]-OH; SMILES COc1ccc2c(C[C@H](NC(=O)[C@H](C)NC(=O)[C@H](C)NC(=O)[C@H](C)NC(=O)[C@H](CCCCN)NC(=O)[C@H](Cc3ccccc3)NC(=O)[C@H](CC(C)C)NC(=O)[C@H](Cc3c[nH]cn3)NC(=O)[C@@H](N)Cc3cc(=O)oc4cc(OC)ccc34)C(=O)O)cc(=O)oc2c1)"
reported_value = "K-A"

[[record]]
substance = "μHLFRAμ (H-[Ala(7-MeO-coumarin-4-yl)]HLFRA[Ala(7-MeO-coumarin-4-yl)]-OH; SMILES COc1ccc2c(C[C@H](NC(=O)[C@H](C)NC(=O)[C@H](CCCNC(=N)N)NC(=O)[C@H](Cc3ccccc3)NC(=O)[C@H](CC(C)C)NC(=O)[C@H](Cc3c[nH]cn3)NC(=O)[C@@H](N)Cc3cc(=O)oc4cc(OC)ccc34)C(=O)O)cc(=O)oc2c1)"
reported_value = "R-A"

[[record]]
substance = "μHLFK^SAAAμ (H-[Ala(7-MeO-coumarin-4-yl)]HLF[X2]AA[Ala(7-MeO-coumarin-4-yl)]-OH; SMILES COc1ccc2c(C[C@H](NC(=O)[C@H](C)NC(=O)[C@H](C)NC(=O)[C@H](C)NC(=S)[C@H](CCCCN)NC(=O)[C@H](Cc3ccccc3)NC(=O)[C@H](CC(C)C)NC(=O)[C@H](Cc3c[nH]cn3)NC(=O)[C@@H](N)Cc3cc(=O)oc4cc(OC)ccc34)C(=O)O)cc(=O)oc2c1)"
reported_value = "A-A"

[[record]]
substance = "μHLFR^SAAAμ (H-[Ala(7-MeO-coumarin-4-yl)]HLF[X1]AA[Ala(7-MeO-coumarin-4-yl)]-OH; SMILES COc1ccc2c(C[C@H](NC(=O)[C@H](C)NC(=O)[C@H](C)NC(=O)[C@H](C)NC(=S)[C@H](CCCNC(=N)N)NC(=O)[C@H](Cc3ccccc3)NC(=O)[C@H](CC(C)C)NC(=O)[C@H](Cc3c[nH]cn3)NC(=O)[C@@H](N)Cc3cc(=O)oc4cc(OC)ccc34)C(=O)O)cc(=O)oc2c1)"
reported_value = "A-A"


Now for another entry.
**Q:** Please look up its cleaved bond: μHLFRAAAμ (H-[Ala(7-MeO-coumarin-4-yl)]HLFRAAA[Ala(7-MeO-coumarin-4-yl)]-OH; SMILES COc1ccc2c(C[C@H](NC(=O)[C@H](C)NC(=O)[C@H](C)NC(=O)[C@H](C)NC(=O)[C@H](CCCNC(=N)N)NC(=O)[C@H](Cc3ccccc3)NC(=O)[C@H](CC(C)C)NC(=O)[C@H](Cc3c[nH]cn3)NC(=O)[C@@H](N)Cc3cc(=O)oc4cc(OC)ccc34)C(=O)O)cc(=O)oc2c1)
**A:** R-A

The values you see were collected from paper PMC8901119.
